The origin of these recorded values is ChEMBL document CHEMBL1201862.

# System: SK-OV-3
# Protocol description: NCI tumour cell line growth inhibition, 48 h
Calls of active or inactive are those of the source. Rule as the data show it: active = GI50 up to about 1.1 µM and inactive = higher.
Measured quantity: GI50

See these solved cases before continuing.
1) O=C(/C=C/c1ccc(Cl)cc1)c1ccccc(=O)c1O; 3.56 µM (inactive)
2) COC(=O)c1cc(OC)c(OC)c(OC)c1-c1cc2c(cc1C=O)OCO2; > 10 µM (inactive)
3) CCOC(=N)CC(=O)Nc1ccccc1CC; > 100 µM (inactive)

Query string: Tell me its GI50 given "O=C(CC(O)(C(F)(F)F)C(F)(F)F)c1cc(CC(=O)C(O)(C(F)(F)F)C(F)(F)F)cc(CC(=O)C(O)(C(F)(F)F)C(F)(F)F)c1" as the entry.
Result string: 2.14 µM (inactive)

Query string: Tell me its GI50 given "O=c1c2cc(Cl)ccc2[nH]c2cc(O)cc(O)c12" as the entry.
Result string: > 10 µM (inactive)
